Tested on: TYKNU
Experiment: fractional viability relative to vehicle; higher = less growth inhibition
Conditions: 10uM; 72 h; genotype: OPA1 knockout (sgOPA1 #2)
Where a name gives a salt, the structure may show the parent alone. The full ranking holds about 2,000 compounds; the median of “fractional viability relative to vehicle” is about 0.92, and the lowest 2% start at about 0.11. The entries come from a sample that favours the lowest values as a whole.
Parameter: fractional viability. Scope: all listed entries.
Value Kind: fractional viability

[[record]]
molecule = "O=C(c1cc(Cc2n[nH]c(=O)c3ccccc23)ccc1F)N1CCN(C(=O)C2CC2)CC1"
meas_value = 0.936

[[record]]
molecule = "COc1ccc(-n2c(SCCCN3C(=O)c4cccc5cccc(c45)C3=O)nnc2-c2ccncc2)cc1"
meas_value = 0.874

[[record]]
molecule = "Cn1cc(CNCC2CCN(c3ncc(C(=O)NO)cn3)CC2)c2ccccc21"
meas_value = 0.19

[[record]]
molecule = "CCOC(=O)c1[nH]c2cc(Cl)ccc2c1C(C(=O)NC(C)(C)C)N(C=O)Cc1ccc(Cl)cc1 (centres undefined)"
meas_value = 0.464

[[record]]
molecule = "CCN(CC)CCN(Cc1ccc(-c2ccc(C(F)(F)F)cc2)cc1)C(=O)Cn1c(SCc2ccc(F)cc2)nc(=O)c2c1CCC2"
meas_value = 0.0367

[[record]]
molecule = "CCOc1nc2cccc(C(=O)O)c2n1Cc1ccc(-c2ccccc2-c2noc(=O)[nH]2)cc1"
meas_value = 1.12

[[record]]
molecule = "NNC(=O)c1ccncc1"
meas_value = 1.08

[[record]]
molecule = "Cc1cncc(CN2CCC(=C3c4ccc(Cl)cc4CCc4cccnc43)CC2)c1 [Rupatadine Fumarate]"
meas_value = 0.915

[[record]]
molecule = "O=C(Nc1ccccc1-c1cn2c(CN3CCNCC3)csc2n1)c1cnc2ccccc2n1"
meas_value = 0.0331


====

Parameter: fractional viability. Scope: all listed entries.
Test system: TYKNU
Experiment: fractional viability relative to vehicle; TYKNU is a high-grade serous ovarian cancer line; higher = less growth inhibition
Details: 10uM; 72 h; genotype: OPA1 knockout (sgOPA1 #2)
Where a name gives a salt, the structure may show the parent alone. Over roughly 2,000 compounds, “fractional viability relative to vehicle” has its median near 0.92; the lowest 2% begin near 0.11. Only a selection was taken, and the lowest values are over-represented in it overall.
Value Kind: fractional viability

[[record]]
compound = "OCCn1cc(-c2cnc3nnn(Cc4ccc5ncccc5c4)c3n2)cn1"
meas_value = 1.14

[[record]]
compound = "CN1CCN(C(=O)c2cc3cc(Cl)ccc3[nH]2)CC1"
meas_value = 1.08

[[record]]
compound = "CC(=O)c1cc2c(o1)C(=O)c1ccccc1C2=O [Napabucasin]"
meas_value = 0.0318

[[record]]
compound = "COc1cc2c(cc1OC)CC(=O)N(CCCN(C)C[C@H]1Cc3cc(OC)c(OC)cc31)CC2 [Ivabradine HCl]"
meas_value = 0.967

[[record]]
compound = "Cc1[nH]c(/C=C2\\C(=O)Nc3ccc(S(=O)(=O)N(C)c4cccc(Cl)c4)cc32)c(C)c1C(=O)N1CCN(C)CC1"
meas_value = 0.133

[[record]]
compound = "CCc1cccc(CC)c1NC(=O)N1Cc2[nH]nc(NC(=O)c3ccc(N4CCN(C)CC4)cc3)c2C1"
meas_value = 0.885

[[record]]
compound = "CC(=O)c1cc([N+](=O)[O-])c(Sc2cccc(Cl)c2Cl)s1"
meas_value = 0.2

[[record]]
compound = "CN(C)CCNC(=O)c1cccn2c(=O)c3cc4ccccc4cc3nc12"
meas_value = 0.294

[[record]]
compound = "CCCCCCCc1ccc(CCc2cccc(O)c2C(=O)O)cc1"
meas_value = 0.73

[[record]]
compound = "CC[C@H](CO)Nc1nc(NCc2ccccc2)c2ncn(C(C)C)c2n1 [Roscovitine (Seliciclib,CYC202)]"
meas_value = 0.913

[[record]]
compound = "CCCCc1oc2ccc(NS(C)(=O)=O)cc2c1C(=O)c1ccc(OCCCN(CCCC)CCCC)cc1 [Dronedarone HCl]"
meas_value = 0.106

[[record]]
compound = "CCCCc1oc2ccccc2c1C(=O)c1cc(I)c(OCCN(CC)CC)c(I)c1 [Amiodarone HCl]"
meas_value = 0.867

[[record]]
compound = "O=C(NC1CCN(CCCCC2(C(=O)NCC(F)(F)F)c3ccccc3-c3ccccc32)CC1)c1ccccc1-c1ccc(C(F)(F)F)cc1 [Lomitapide Mesylate]"
meas_value = 0.0779

[[record]]
compound = "CO[C@@H](C(=O)N1Cc2[nH]nc(NC(=O)c3ccc(N4CCN(C)CC4)cc3)c2C1)c1ccccc1"
meas_value = 0.815

[[record]]
compound = "CNC(=O)[C@@H](NC(=O)[C@H](CC(C)C)[C@H](O)C(=O)NO)C(C)(C)C [Marimastat(BB-2516)]"
meas_value = 0.73

[[record]]
compound = "COc1cc2c(cc1OC)CN(CCc1ccc(NC(=O)c3cc(OC)c(OC)cc3NC(=O)c3cnc4ccccc4c3)cc1)CC2 [Tariquidar]"
meas_value = 0.459

[[record]]
compound = "O=C(O)c1cc(=O)c2ccccc2o1 [Chromocarb]"
meas_value = 0.816

[[record]]
compound = "CCCCCCCCCCCCc1ccc(S(=O)(=O)Nc2nncs2)cc1"
meas_value = 1.05

